system: SF-268; test: NCI tumour cell line growth inhibition, 48 h
Active and inactive are the calls of the source. No stated cut-off is given here; in the data, active = GI50 up to about 1.1 µM and inactive = higher.
Give GI50 for every item shown.

Which GI50 is reported with SF-268 for this entry: N#C/C=C\c1ccc(-c2cc(C(F)(F)F)cc(C(F)(F)F)c2)o1 ? 25.9 µM (inactive)

Let us now turn to Oc1ccc2c3c1OC1c4[nH]ncc4C[C@H]4[C@@H](C2)N(CC2CC2)CC[C@]314 (some centres undefined) > 100 µM (inactive)

How about this molecule: Nc1ccccc1C(=O)NC(=O)Nc1ccc(Oc2ncc(Br)cn2)c(Cl)c1 < 0.01 µM (active)

And for CC12CCC(=O)N1c1cncnc1N2 (centres undefined) ? > 10 µM (inactive)

Moving on to CN(c1c(Cl)cccc1Cl)S(=O)(=O)c1ccccc1[N+](=O)[O-] > 100 µM (inactive)

Next entry: O=C(CCc1ccc(O)cc1)NCCc1ccc(O)cc1 > 100 µM (inactive)

Would you mind doing COC(=O)C1[C@H](C(=O)OC)C1(Br)CBr (some centres undefined) as well? > 100 µM (inactive)

Do the same for O=C(CNC(=O)OCc1ccccc1)NCCCCC(NC(=O)OCc1ccccc1)C(=O)O (centres undefined) please > 100 µM (inactive)

Another: CC(=O)O[C@H]1C(=O)[C@@]2(C)[C@H]([C@H](OC(=O)c3ccccc3)[C@]3(O)C[C@H](OC(=O)[C@H](O)[C@@H](NC(=O)c4ccc(N)cc4)c4ccccc4)C(C)=C1C3(C)C)[C@]1(OC(C)=O)CO[C@@H]1C[C@@H]2O 0.0107 µM (active)

Repeat for the following molecule: CCCCCCCCCCCCOC(=S)NC 20.2 µM (inactive)

Try the molecule Cc1ccc(S(=O)(=O)N2CCN3C(=O)c4ccccc4C32c2ccc(F)cc2)cc1 (centres undefined) 98.4 µM (inactive)

Another molecule to look at: COc1cc2c(cc1O)[C@H](C)C(c1ccccc1OC)O2 (some centres undefined) 5.75 µM (inactive)

Note, next up: CCCCCCCCC/C=C1/CC(CO)(COC(=O)c2ccccc2)OC1=O (centres undefined) 15.7 µM (inactive)

Moving on to the next molecule: N=C(/C=C/c1ccc(-c2cn3cc(/C=C/C(=N)N4CCOCC4)ccc3n2)cc1)N1CCOCC1 > 100 µM (inactive)

Field entry: CCCC(=O)c1c(NOC2OCC(OC(C)=O)C(OC(C)=O)C2OC(C)=O)nc(OC)n(C)c1=O (centres undefined) > 100 µM (inactive)

Let us now turn to COc1cc2c(/C=C3/C(=O)Nc4ccc(Cl)cc43)c(Cl)[nH]c2cc1C 1.03 µM (active)

Cool, now Nc1ncnc2c1ncn2C1CCC(CP(=O)(O)O)C1 (centres undefined) > 100 µM (inactive)

How about this molecule: C=C1C[C@@H]2O[C@H]3[C@H]4[C@@H](C[C@@H](C)[C@@H](OC(C)=O)[C@H]42)[C@@H](C)CO[C@@]3(C)[C@H](OC(=O)CCCCCCC)C[C@H]1O 16.1 µM (inactive)

Follow-up entry: CCCCOP(=O)(OCCCC)/C(C#N)=C/c1ccco1 45.2 µM (inactive)

###

test system: M14; experiment: NCI tumour cell line growth inhibition, 48 h
Activity calls are given as the source filed them. Rule as the data show it: active = GI50 up to about 1.1 µM and inactive = higher. Residues, ends and D or L forms follow the SMILES beside them. *: point of attachment. Cbz = O=C(OCc1ccccc1)*
The reply should name one outcome from 1 for active, -1 for inactive

Assay outcome for CN1C/C(=C\C=C\c2ccccc2)C(=O)/C(=C/C=C/c2ccccc2)C1 : what was it? -1

What about C[C@H](C(O)CC(=O)C(C)(C)O)[C@H]1CC[C@@]2(C)[C@@H]3CC[C@H]4C(C)(C)[C@@H](OC5OC(COC6OC(CO)C(O)C(O)C6O)C(O)C(O)C5O)CC[C@]4(C)C3=CC[C@]12C (some centres undefined) ? -1

Next: CCN(CC)CC(C)(C)C(=O)/C=C/c1cccc(/C=C/C(=O)C(C)(C)CN(CC)CC)c1 -1

Now give it for CC(NC(=O)C(NC(=O)OCc1ccccc1)C(C)C)C(=O)NCC(=O)O (stereo not drawn) (Cbz-Val-Ala-Gly-OH; configuration not given here) too. -1

Field entry: O=C(Cc1ccccc1F)NC1=C(Cl)C(=O)c2ccccc2C1=O 1

Likewise for Cc1ncc([N+](=O)[O-])n1CCN=[N+]=[N-] ? -1

Another: COc1ccc(C)cc(O)c1=O -1

Same for CC(C)=C[C@H]1CCC2(OCCO2)[C@]1(C)COCc1ccccc1 -1

What do you get for Cc1cc(-c2ccccc2)nc(Nc2nc3ccccc3o2)n1 ? -1

Now consider Cc1nn(C(=O)Cc2ccccc2)c2c1C(c1ccccc1)SC(=N)N2 (centres undefined) . -1

Subsequent entry: CCCCCCCCCCCCCCCCOP(=O)(O)OP(=O)(O)OCC1OC(n2cnc3c(N)ncnc32)C(O)C1O (centres undefined) -1

Try this compound too: Cc1cc(N=C2C=C(Br)C(=O)C(Br)=C2)cc(CN(CC(=O)O)CC(=O)O)c1O -1

What do we get for COc1ccc(OC)c2c(C(=O)O)c(Cc3ccccc3)ccc12 ? -1

Next compound up: CN(C)Cc1cc(/N=N/c2ccc(Cl)cc2)ccc1O -1

Same for COC(=O)C(CCCCCCCC(C(=O)OC)C1=Nc2nnc(N)n2C1=O)C1=Nc2nnc(N)n2C1=O (centres undefined) -1

// next record COc1cc2c(cc1OC)C(=O)/C(=C/c1ccc(Cl)cc1)CC2 -1

Thanks! And O=C1C2C3C=CC(C2C(=O)N1COP(=O)(O)O)C1C2C(=O)N(COP(=O)(O)O)C(=O)C2C31 (centres undefined) ? -1

Same for COc1cc(/C=C2\NC(=S)C3Cc4c(OC)c(C)c(OC)c(OC)c4C2N3C)c(OC)c(C)c1OC (centres undefined) -1

How about this compound: OC1NC2Nc3ccccc3NC2NC1O (centres undefined) -1
